Measured pEC50 accompanies every entry in the list below.
Target Of Assay: T1, human ROR1 on the surface of tumor cells (human, UniProt Q01973 30-937)
T1 construct: whole, on cells; also called ROR1 on the cell surface; tumor cell ROR1
T1 sequence (Q01973 30-937): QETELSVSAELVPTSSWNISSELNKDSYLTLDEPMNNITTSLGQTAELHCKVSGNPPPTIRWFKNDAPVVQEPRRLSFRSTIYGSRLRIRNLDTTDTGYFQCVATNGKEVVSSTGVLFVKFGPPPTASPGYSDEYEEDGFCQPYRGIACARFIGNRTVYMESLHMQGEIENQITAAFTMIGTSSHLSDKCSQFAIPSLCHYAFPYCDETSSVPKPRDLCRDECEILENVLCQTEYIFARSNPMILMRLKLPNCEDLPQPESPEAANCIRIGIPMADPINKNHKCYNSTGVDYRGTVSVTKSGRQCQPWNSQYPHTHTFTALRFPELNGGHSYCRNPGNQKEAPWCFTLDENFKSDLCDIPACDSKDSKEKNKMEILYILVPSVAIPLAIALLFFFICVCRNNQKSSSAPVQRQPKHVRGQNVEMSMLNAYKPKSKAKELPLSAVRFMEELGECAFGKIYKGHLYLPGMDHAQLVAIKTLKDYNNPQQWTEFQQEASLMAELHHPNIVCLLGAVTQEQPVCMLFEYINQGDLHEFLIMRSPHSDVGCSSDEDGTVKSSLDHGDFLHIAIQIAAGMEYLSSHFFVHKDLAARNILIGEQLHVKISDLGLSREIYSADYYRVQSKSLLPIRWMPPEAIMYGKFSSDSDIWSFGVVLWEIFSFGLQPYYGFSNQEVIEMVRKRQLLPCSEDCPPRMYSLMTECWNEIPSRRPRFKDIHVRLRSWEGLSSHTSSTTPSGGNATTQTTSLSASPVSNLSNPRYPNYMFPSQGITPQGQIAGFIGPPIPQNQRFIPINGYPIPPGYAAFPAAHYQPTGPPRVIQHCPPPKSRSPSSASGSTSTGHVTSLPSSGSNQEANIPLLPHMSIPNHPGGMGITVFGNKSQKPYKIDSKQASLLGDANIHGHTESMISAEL
Protocol Notes: FACS, NCI-H226 cells
API: returns pEC50 as number; meaning -log10 of concentration in mol/L.

Record excerpt, results attached:
{"Binder": "UC-961 (antibody, V domains shown, Control antibody of US20150232569A1, made with human IgG1 heavy chain constant region and Kappa chain constant region) VH: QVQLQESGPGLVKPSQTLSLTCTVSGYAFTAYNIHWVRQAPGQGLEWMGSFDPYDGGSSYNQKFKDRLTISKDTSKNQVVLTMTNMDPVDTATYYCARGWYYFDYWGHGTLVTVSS VL: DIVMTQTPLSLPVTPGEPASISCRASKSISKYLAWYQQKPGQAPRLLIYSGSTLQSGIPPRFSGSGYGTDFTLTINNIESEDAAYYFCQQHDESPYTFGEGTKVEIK", "pEC50": 9.89}
{"Binder": "mAb004c (antibody, V domains shown, Human-mouse chimeric) VH: EVQLVESGGGLVQPKGSLKLSCAASGFTFNTYAMHWVRQAPGKGLEWVARIRSKSSNFATYYADSVRDRFTISRDDSQSMLYLQMNNLKTEDTAMYYCVRGYGPSYFSLDYWGQGTSVTVSS VL: DVVMTQTPLSLPVSLGDQASISCRSSQSLVHSNGNTYLHWYLQKPGQSPKLLIYKVSNRFSGVPDRFSGSGSGTDFTLKINRVEAEDLGVYFCSQSTHAIYTFGGGTKLEIK", "pEC50": 9.34}
{"Binder": "mAb005c (antibody, V domains shown, Human-mouse chimeric) VH: EVQLVESGGGLVKPGGSLKLSCAASGFTFNSYAMSWVRQTPEKRLEWVATISDGGSYTYYPDNEKGRFTISRDNAKNNLYLQMSHLKSEDTAIYYCVRGGYYYNLYAMDYWGQGTSVTVSS VL: DIVLTQSPASLAVSLGQRAIISCKASQSVSFPGTSLMHWYQQKPGQQPKLLIYRASNLEAGVPTRFSGSGSRTDFTLNIHPVEEDDTATYYCQQSREYPWTFGGGTQLEIK", "pEC50": 9.74}

Next binder, pEC50 to be filled in.
IN: GET /values?readout=pEC50&item= mAb001c (antibody, V domains shown, Human-mouse chimeric; also called human-mouse chimeric antibody mAb001c) VH: EVRLQQSGPVLVKPGASVKMSCKASGYTFTDYNLHWVKQSHRQSLEWIGYINPNHDGTSYNQKFQGKATLTVDRSSSTAYMEFRSLTSEDSAVYYCARRVRTGTGLDDWGQGTTLTVSS VL: DVLMTQSPLSLPVSLGDQASISCRSSHNIVHTNGNTYLEWYLQKPGQSPKLLIYKVSNRFSGVPDRFSGSGSGTYFTLTISRVEAEDLGVYYCFQGSRFPYTFGGGTKLEIK
OUT: 9.96

All figures here come from patent EP4585616A1.
